I'd be grateful if you could share measured residual activity for these entries.
- system name: Activated CDC42 kinase 1 (Homo sapiens)
- experimental parameters: at 1 µM
Could you give me the number in %? Just the number is fine.

Ask: Report residual activity for c1ccc2c(-c3ccncc3)c[nH]c2c1 tested on Activated CDC42 kinase 1 (Homo sapiens).
Reply: 80

Ask: Report residual activity for COc1cc2ncc(-c3ccccc3)nc2cc1OC tested on Activated CDC42 kinase 1 (Homo sapiens).
Reply: 96

Ask: Report residual activity for COc1ccc(S(=O)(=O)N(CCO)c2ccccc2CN(C)C/C=C/c2ccc(Cl)cc2)cc1 tested on Activated CDC42 kinase 1 (Homo sapiens).
Reply: 68

----------
- system name: Cyclin-dependent kinase 7/ cyclin H (Homo sapiens) (UniProt P51946+P50613)
- experimental parameters: at 10 µM
readout label: residual activity (%)
Could you give me the number in %? Just the number is fine.

Ask: Param item = Ic1cccc(CSc2nnc(-c3ccncc3)o2)c1 ; retrieve measured residual activity.
Reply: 72

Ask: Param item = CCN(CC)CCCCN1c2ccccc2Oc2ccc(Cl)cc21 ; retrieve measured residual activity.
Reply: 105

Ask: Param item = CN(C)CCCn1cc(C2=C(c3c[nH]c4ccccc34)C(=O)NC2=O)c2ccccc21 ; retrieve measured residual activity.
Reply: 13

Ask: Param item = Cn1nc2c3c(cccc31)C(=O)c1ccccc1-2 ; retrieve measured residual activity.
Reply: 73

Ask: Param item = CO[C@@H]1[C@H](N(C)C(=O)c2ccccc2)C[C@H]2O[C@]1(C)n1c3ccccc3c3c4c(c5c6ccccc6n2c5c31)C(=O)NC4 ; retrieve measured residual activity.
Reply: 90

Ask: Param item = Cc1cncc2cccc(S(=O)(=O)N3CCCN(C(=O)CN)C[C@H]3C)c12 ; retrieve measured residual activity.
Reply: 89

Ask: Param item = O=C(Nc1cccc(Nc2nccc(Nc3cccc(C(F)(F)F)c3)n2)c1)C1CC1 ; retrieve measured residual activity.
Reply: 86

----------
I'd be grateful if you could share measured residual activity for these entries.
- system name: Mitogen-activated protein kinase kinase kinase 7 (Homo sapiens) (UniProt O43318)
- Sequence (O43318 whole entry): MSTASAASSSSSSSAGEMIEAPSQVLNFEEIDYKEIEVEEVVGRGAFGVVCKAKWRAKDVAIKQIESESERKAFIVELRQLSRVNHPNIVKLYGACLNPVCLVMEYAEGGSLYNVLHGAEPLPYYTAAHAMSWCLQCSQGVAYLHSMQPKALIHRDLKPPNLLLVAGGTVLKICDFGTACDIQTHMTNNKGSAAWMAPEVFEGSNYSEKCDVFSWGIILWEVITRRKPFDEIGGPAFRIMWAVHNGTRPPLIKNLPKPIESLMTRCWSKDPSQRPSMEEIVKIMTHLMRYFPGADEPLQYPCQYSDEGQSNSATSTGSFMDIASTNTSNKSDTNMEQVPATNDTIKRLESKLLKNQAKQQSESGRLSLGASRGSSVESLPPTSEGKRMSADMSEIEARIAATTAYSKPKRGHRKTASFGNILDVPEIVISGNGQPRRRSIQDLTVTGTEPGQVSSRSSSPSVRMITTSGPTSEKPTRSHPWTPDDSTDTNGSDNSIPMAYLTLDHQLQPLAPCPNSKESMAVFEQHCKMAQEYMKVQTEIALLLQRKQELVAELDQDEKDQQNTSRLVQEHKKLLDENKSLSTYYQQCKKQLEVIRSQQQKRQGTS
- experimental parameters: at 10 µM
Could you give me the number in %? Just the number is fine.

Ask: Param item = CN(C)c1ccc(/C=C2\C(=O)Nc3ccccc32)cc1 ; retrieve measured residual activity.
Reply: 81

Ask: Param item = COc1cc2ncc(-c3ccccc3)nc2cc1OC ; retrieve measured residual activity.
Reply: 82

Ask: Param item = COc1cc2ncnc(N3CCN(C(=O)Nc4ccc(Oc5ccccc5)cc4)CC3)c2cc1OC ; retrieve measured residual activity.
Reply: 82

Ask: Param item = NC(=O)c1ccc2[nH]c(-c3ccc(Oc4ccc(Cl)cc4)cc3)nc2c1 ; retrieve measured residual activity.
Reply: 81

Ask: Param item = CO[C@H]1C[C@@H]2CC[C@@H](C)[C@@](O)(O2)C(=O)C(=O)N2CCCC[C@H]2C(=O)O[C@H]([C@H](C)C[C@@H]2CC[C@@H](O)[C@H](OC)C2)CC(=O)[C@H](C)/C=C(\C)[C@@H](O)[C@@H](OC)C(=O)[C@H](C)C[C@H](C)/C=C/C=C/C=C/1C ; retrieve measured residual activity.
Reply: 82

Ask: Param item = COc1ccc(OC)c2c(=S)c3ccccc3[nH]c12 ; retrieve measured residual activity.
Reply: 81

Ask: Param item = Cc1cccc(-c2[nH]c(C(C)(C)C)nc2-c2ccc3c(c2)OCO3)n1 ; retrieve measured residual activity.
Reply: 90

Ask: Param item = Cc1nc(-c2ccccc2)c(-c2ccncc2)o1 ; retrieve measured residual activity.
Reply: 97

Ask: Param item = O=C(Nc1cccc(Nc2nccc(Nc3cccc(C(F)(F)F)c3)n2)c1)C1CC1 ; retrieve measured residual activity.
Reply: 99

Ask: Param item = Oc1c2ccccc2c2c3c(cccc13)N=N2 ; retrieve measured residual activity.
Reply: 19

----------
I'd be grateful if you could share measured residual activity for these entries.
- system name: Ephrin type-A receptor 2 (Homo sapiens) (UniProt P29317)
- Sequence (P29317 whole entry): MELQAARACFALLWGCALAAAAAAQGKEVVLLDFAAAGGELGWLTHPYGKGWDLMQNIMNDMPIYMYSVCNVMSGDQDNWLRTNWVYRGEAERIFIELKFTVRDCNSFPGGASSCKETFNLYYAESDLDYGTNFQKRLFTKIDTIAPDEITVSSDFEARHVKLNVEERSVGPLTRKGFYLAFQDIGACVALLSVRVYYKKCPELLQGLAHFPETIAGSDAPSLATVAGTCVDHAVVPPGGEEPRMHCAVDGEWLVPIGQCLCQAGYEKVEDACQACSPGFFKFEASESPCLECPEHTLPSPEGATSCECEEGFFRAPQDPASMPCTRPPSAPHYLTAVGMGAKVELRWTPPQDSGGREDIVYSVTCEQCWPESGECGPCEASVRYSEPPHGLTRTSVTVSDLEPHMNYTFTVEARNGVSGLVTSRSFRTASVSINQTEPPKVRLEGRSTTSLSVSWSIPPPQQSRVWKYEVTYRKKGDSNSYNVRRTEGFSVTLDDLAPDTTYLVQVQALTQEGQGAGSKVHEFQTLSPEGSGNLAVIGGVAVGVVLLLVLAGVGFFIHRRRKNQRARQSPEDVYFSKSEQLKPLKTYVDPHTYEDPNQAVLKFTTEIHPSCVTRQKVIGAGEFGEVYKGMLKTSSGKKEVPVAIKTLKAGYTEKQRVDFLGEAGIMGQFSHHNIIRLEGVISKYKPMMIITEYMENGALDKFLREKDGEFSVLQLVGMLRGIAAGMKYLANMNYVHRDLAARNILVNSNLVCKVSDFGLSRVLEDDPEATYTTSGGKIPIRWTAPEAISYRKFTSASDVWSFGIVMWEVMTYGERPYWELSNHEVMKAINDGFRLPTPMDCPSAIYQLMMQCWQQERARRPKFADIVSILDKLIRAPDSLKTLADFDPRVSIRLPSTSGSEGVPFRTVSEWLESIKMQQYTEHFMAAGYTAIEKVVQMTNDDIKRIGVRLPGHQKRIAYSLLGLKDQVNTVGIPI
- experimental parameters: at 1 µM
Could you give me the number in %? Just the number is fine.

Ask: Report residual activity for CNc1cc2c(Nc3cccc(Br)c3)ncnc2cn1 tested on Ephrin type-A receptor 2 (Homo sapiens) (UniProt P29317).
Reply: 94

Ask: Report residual activity for CN(C)CCCn1cc(C2=C(c3c[nH]c4ccccc34)C(=O)NC2=O)c2ccccc21 tested on Ephrin type-A receptor 2 (Homo sapiens) (UniProt P29317).
Reply: 102

Ask: Report residual activity for CO[C@H]1C[C@@H]2CC[C@@H](C)[C@@](O)(O2)C(=O)C(=O)N2CCCC[C@H]2C(=O)O[C@H]([C@H](C)C[C@@H]2CC[C@@H](O)[C@H](OC)C2)CC(=O)[C@H](C)/C=C(\C)[C@@H](O)[C@@H](OC)C(=O)[C@H](C)C[C@H](C)/C=C/C=C/C=C/1C tested on Ephrin type-A receptor 2 (Homo sapiens) (UniProt P29317).
Reply: 110

Ask: Report residual activity for O=[N+]([O-])c1ccc(-c2nc(-c3ccc(F)cc3)c(-c3ccncc3)[nH]2)cc1 tested on Ephrin type-A receptor 2 (Homo sapiens) (UniProt P29317).
Reply: 89

Ask: Report residual activity for COc1cc2ncnc(N3CCN(C(=O)Nc4ccc(Oc5ccccc5)cc4)CC3)c2cc1OC tested on Ephrin type-A receptor 2 (Homo sapiens) (UniProt P29317).
Reply: 101

Ask: Report residual activity for O=C(Nc1cccc(Nc2cc(Nc3cccc(C(F)(F)F)c3)ncn2)c1)C1CC1 tested on Ephrin type-A receptor 2 (Homo sapiens) (UniProt P29317).
Reply: 108

Ask: Report residual activity for O=C1c2ccccc2-[n+]2ccc3c([nH]c4ccccc43)c21 tested on Ephrin type-A receptor 2 (Homo sapiens) (UniProt P29317).
Reply: 89

----------
- system name: Serine/threonine-protein kinase 4 (Homo sapiens)
- experimental parameters: at 1 µM
readout label: residual activity (%)
Could you give me the number in %? Just the number is fine.

Ask: Param item = COc1ccc(CNc2nc(N(CCO)CCO)nc3c2ncn3C(C)C)cc1 ; retrieve measured residual activity.
Reply: 74

Ask: Param item = O=C(Nc1cccc(Nc2cc(Nc3cccc(C(F)(F)F)c3)ncn2)c1)C1CC1 ; retrieve measured residual activity.
Reply: 99

Ask: Param item = CCC(=O)Nc1ccc2ncnc(Nc3cccc(Br)c3)c2c1 ; retrieve measured residual activity.
Reply: 91

Ask: Param item = Oc1c2ccccc2c2c3c(cccc13)N=N2 ; retrieve measured residual activity.
Reply: 52

Ask: Param item = O=c1cc(-c2cccc3c2Sc2ccccc2S3)oc(N2CCOCC2)c1 ; retrieve measured residual activity.
Reply: 99

Ask: Param item = NC(=O)c1ccc2[nH]c(-c3ccc(Oc4ccc(Cl)cc4)cc3)nc2c1 ; retrieve measured residual activity.
Reply: 97

Ask: Param item = CC(=O)c1ccc(N2CCOCC2)cc1O ; retrieve measured residual activity.
Reply: 85

Ask: Param item = COc1cc2ncnc(Nc3ccc(Oc4ccccc4)cc3)c2cc1OC ; retrieve measured residual activity.
Reply: 99

Ask: Param item = O=C1NC(=O)c2c1c1c3ccccc3[nH]c1c1[nH]c3cc(Br)ccc3c21 ; retrieve measured residual activity.
Reply: 92

Ask: Param item = Oc1ccc(-c2nc(-c3ccc(F)cc3)c(-c3ccncc3)[nH]2)cc1 ; retrieve measured residual activity.
Reply: 92

Ask: Param item = Oc1ccc(Nc2nc(-c3ccc(Cl)cc3)cs2)cc1 ; retrieve measured residual activity.
Reply: 78

Ask: Param item = CN(C)CCCn1cc(C2=C(c3c[nH]c4ccccc34)C(=O)NC2=O)c2ccccc21 ; retrieve measured residual activity.
Reply: 40

Ask: Param item = O=C(Nc1cccc(Nc2nccc(Nc3cccc(C(F)(F)F)c3)n2)c1)C1CC1 ; retrieve measured residual activity.
Reply: 110

----------
I'd be grateful if you could share measured residual activity for these entries.
- system name: Tyrosine-protein kinase JAK3 (Homo sapiens) (UniProt P52333)
- Sequence (P52333 whole entry): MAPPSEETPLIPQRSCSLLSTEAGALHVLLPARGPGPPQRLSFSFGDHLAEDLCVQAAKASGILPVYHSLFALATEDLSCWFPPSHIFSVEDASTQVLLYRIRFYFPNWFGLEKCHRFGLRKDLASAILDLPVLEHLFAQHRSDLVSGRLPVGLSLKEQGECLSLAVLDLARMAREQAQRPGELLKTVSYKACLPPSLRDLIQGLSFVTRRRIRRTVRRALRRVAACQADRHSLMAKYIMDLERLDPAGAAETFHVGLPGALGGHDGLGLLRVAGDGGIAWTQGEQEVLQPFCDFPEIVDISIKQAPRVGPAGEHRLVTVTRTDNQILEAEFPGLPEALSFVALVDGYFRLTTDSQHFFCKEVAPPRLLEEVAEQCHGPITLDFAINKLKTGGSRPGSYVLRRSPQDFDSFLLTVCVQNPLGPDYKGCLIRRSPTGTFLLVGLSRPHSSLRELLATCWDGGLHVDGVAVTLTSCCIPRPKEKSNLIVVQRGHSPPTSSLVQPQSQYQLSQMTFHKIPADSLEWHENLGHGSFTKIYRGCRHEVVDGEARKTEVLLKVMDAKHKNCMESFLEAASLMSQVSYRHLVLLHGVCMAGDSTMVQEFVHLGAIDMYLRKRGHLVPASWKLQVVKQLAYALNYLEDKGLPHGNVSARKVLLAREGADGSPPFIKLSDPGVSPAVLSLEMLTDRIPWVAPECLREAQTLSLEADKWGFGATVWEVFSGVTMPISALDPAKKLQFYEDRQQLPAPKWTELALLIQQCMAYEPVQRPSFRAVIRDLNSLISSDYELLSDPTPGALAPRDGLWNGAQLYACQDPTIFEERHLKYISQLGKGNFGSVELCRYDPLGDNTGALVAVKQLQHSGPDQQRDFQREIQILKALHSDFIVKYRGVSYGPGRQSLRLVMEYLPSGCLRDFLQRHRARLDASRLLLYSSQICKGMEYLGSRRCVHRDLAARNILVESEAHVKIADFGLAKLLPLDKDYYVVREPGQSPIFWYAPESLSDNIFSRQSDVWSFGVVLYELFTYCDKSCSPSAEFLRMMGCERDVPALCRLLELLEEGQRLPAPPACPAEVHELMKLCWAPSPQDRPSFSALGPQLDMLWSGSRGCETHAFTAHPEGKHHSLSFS
- experimental parameters: at 10 µM
Could you give me the number in %? Just the number is fine.

Ask: Param item = COc1cc2ncnc(Nc3ccc(O)c(Br)c3)c2cc1OC ; retrieve measured residual activity.
Reply: 57

Ask: Param item = O=[N+]([O-])c1ccc(-c2nc(-c3ccc(F)cc3)c(-c3ccncc3)[nH]2)cc1 ; retrieve measured residual activity.
Reply: 108

Ask: Param item = O=c1c2ccccc2[nH]c(=S)n1CCN1CCC(=C(c2ccc(F)cc2)c2ccc(F)cc2)CC1 ; retrieve measured residual activity.
Reply: 101

Ask: Param item = Cc1cc(Nc2nc(-c3ccccc3)nc3ccccc23)n[nH]1 ; retrieve measured residual activity.
Reply: 5

----------
- system name: Mitogen-activated protein kinase 14 (Homo sapiens)
- experimental parameters: at 10 µM
Label rule not met if residual activity falls below 80%; label rule met in every other case.

Ask: Is the recorded value of residual activity equal to or greater than 80% for this compound? O=C1NC(=O)/C(=C\c2ccc3nccnc3c2)S1
Reply: rule met

Ask: Is the recorded value of residual activity equal to or greater than 80% for this compound? CCN(CC)C(=O)c1ccc(Nc2nc(OCC3CCCCC3)c3nc[nH]c3n2)cc1
Reply: rule not met

Ask: Is the recorded value of residual activity equal to or greater than 80% for this compound? O=c1cc(-c2cccc3c2Sc2ccccc2S3)oc(N2CCOCC2)c1
Reply: rule met

Ask: Is the recorded value of residual activity equal to or greater than 80% for this compound? Oc1n[nH]c2nnc(-c3c(-c4ccccc4)nn4ccccc34)cc12
Reply: rule met

Ask: Is the recorded value of residual activity equal to or greater than 80% for this compound? O=C1c2ccccc2-[n+]2ccc3c([nH]c4ccccc43)c21
Reply: rule met

Ask: Is the recorded value of residual activity equal to or greater than 80% for this compound? CCN(CC)CCCCN1c2ccccc2Oc2ccc(Cl)cc21
Reply: rule met

Ask: Is the recorded value of residual activity equal to or greater than 80% for this compound? Cc1nc(-c2ccccc2)c(-c2ccncc2)o1
Reply: rule not met

Ask: Is the recorded value of residual activity equal to or greater than 80% for this compound? Oc1ccc(Nc2nc(-c3ccc(Cl)cc3)cs2)cc1
Reply: rule not met

Ask: Is the recorded value of residual activity equal to or greater than 80% for this compound? O=C1NC(=O)c2c1c1c3ccccc3[nH]c1c1[nH]c3cc(Br)ccc3c21
Reply: rule met

Ask: Is the recorded value of residual activity equal to or greater than 80% for this compound? Cc1cc(Nc2nc(-c3ccccc3)nc3ccccc23)n[nH]1
Reply: rule not met
